Each recorded value in this set is attributed to patent US9840501B2.

target: rat TAAR1 (Rattus norvegicus (Rat))
Sequence (Q923Y9 whole entry): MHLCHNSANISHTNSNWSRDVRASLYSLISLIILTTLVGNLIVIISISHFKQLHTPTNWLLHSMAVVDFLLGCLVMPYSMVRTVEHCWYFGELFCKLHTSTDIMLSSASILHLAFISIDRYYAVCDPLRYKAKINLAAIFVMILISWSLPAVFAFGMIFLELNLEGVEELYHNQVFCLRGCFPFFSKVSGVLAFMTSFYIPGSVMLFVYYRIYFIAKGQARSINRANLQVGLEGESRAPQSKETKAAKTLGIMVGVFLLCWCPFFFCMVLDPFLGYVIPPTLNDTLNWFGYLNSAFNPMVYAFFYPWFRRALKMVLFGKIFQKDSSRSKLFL
pKd: −log10 of the molar value.
property.label: pKd

Data request: Please provide the recorded pKd for CCN(C[C@H]1COC(N)=N1)c1ccccc1 [reference compound] , tested on rat TAAR1 (Rattus norvegicus (Rat)).
Data returned: ~8.64

----------
Quick reference for Ki among some compounds
biological target: rat TAAR1 (Rattus norvegicus (Rat)); experiment: Radioligand binding assay on rat TAAR1; conditions: rat TAAR1, membranes of stably transfected HEK-293 cells; second value of the pair; read-out: Ki (μM) mouse/rat: rat
A number alone suffices; assume µM.

{"compound": "O=C(Nc1cnc(C2CNCCO2)nc1)Nc1cccc(Cl)c1 (racemic)", "result.units": "µM", "measured": 1.96}

Data request: Can you share its Ki? I mean this compound: `Clc1ccc(Nc2ccc([C@@H]3CNCCO3)nc2)nc1`
Data returned: 0.0751

Data request: May I ask what Ki has been recorded for `Clc1ccc(Nc2ccc([C@@H]3CNCCO3)nc2)cc1` ?
Data returned: 0.043

Data request: What value of Ki has been reported for the following compound? `O=C(Nc1ccc([C@H]2CNCCO2)nc1)c1ccc(C(F)(F)F)cc1`
Data returned: 0.0718

Data request: What value of Ki has been recorded for this entry: `O=C(Nc1ccc([C@@H]2CNCCO2)nc1)Nc1cccc(C(F)(F)F)c1`
Data returned: 0.003
